# SUBJECT_OF_TEST: μ2 5K>E Core
# TEST_SUMMARY: SPR; liposomes with 10% PtdIns4,5P2 + 1% TGN38
pKd: −log10 of the molar value. Where no end group is shown, it is not given here. The star is where a group is joined. MPB‑DPPE = 1,2-dipalmitoyl-sn-glycero-3-phosphoethanolamine-N-[4-(p-maleimidophenyl)butyramide], CCCCCCCCCCCCCCCC(=O)OC[C@H](COP(=O)(O)OCCNC(=O)CCCc1ccc(N2C(=O)CC(*)C2=O)cc1)OC(=O)CCCCCCCCCCCCCCC
MEASURE_NAME: pKd

>  <BINDER>
C(MPB‑DPPE)KVTRRPKASDYQRL [lipid-linked TGN38 sorting motif peptide (CKVTRRPKASDYQRL) displayed in liposomes]

>  <MEASURE_NAME>
pKd

>  <OBSERVED_VALUE>
6.28

$$$$
